- Test System: UniProtKB P00734
- Test Method Notes: Thrombin-inhibitory activity in plasma samples (ecarin-activated)
- Assay type: biochemical
- Conditions: citrate plasma, ecarin activation, fluorogenic thrombin substrate; read at about 70% of maximum signal (about 12 min); in some cases means
pIC50: −log10 of the molar value.
Reported Metric: pIC50

Field: example entries. Status: answers known.
| Molecule | pIC50 |
| --- | --- |
| COc1cc(C(=O)N2CC(C)(CCO)OCC2(C)C)cn2nc(NCc3cccc(Cl)c3)nc12 (racemic) [Example 31] | 7.82 |
| COc1cc(C(=O)N2CC(C)(CC(C)O)OCC2(C)C)cn2nc(NCc3cccc(Cl)c3)nc12 (single isomer, unassigned) [Example 34] | 7.72 |

I. COCC1C(=O)N2CCC2CN1C(=O)c1cc(OC)c2nc(NCc3cccc(Cl)c3)nn2c1 (single isomer, unassigned)
II. COc1cc(C(=O)N2CC(C)(C)OCC2C(C)O)cn2nc(NCc3cccc(Cl)c3)nc12 (single isomer, unassigned)
For I and II , which recorded pIC50 is lower? Please respond with the label that marks your chosen entry.
II

The measurements presented in this section are drawn from patent US20160108039A1.
